target: SYK (Homo sapiens, UniProt P43405)
pIC50: −log10 of the molar value.
Property Name: pIC50

*Q* pIC50 for `COc1ccc(-c2noc(=O)[nH]2)cc1-c1cc2nccc(-c3cc[nH]n3)c2o1` ?
*A* > 7.00

*Q* Please give the result for `CCc1ccc(OC)cc1-c1cc2nccc(-c3cccc(C(=O)N[C@@H]4CCCC[C@@H]4N)c3)c2o1` too.
*A* 4.30 to 5.52

*Q* Please give the result for `COc1cc(-c2cc3nccc(-c4cccc(C(=O)N[C@@H]5C[C@@H]5N)c4)c3o2)cc(OC)c1OC` too.
*A* 5.52 to 6.52

*Q* Please give the result for `COc1cc(-c2cc3ncc(F)c(-c4cccc(C(=O)N[C@@H]5CCCC[C@@H]5N)c4)c3o2)cc(OC)c1OC` too.
*A* 5.52 to 6.52

*Q* Please give the result for `COc1cc(-c2cc3nccc(-c4ccnc(NC[C@@H]5CCCNC5)c4)c3o2)cc(OC)c1OC` too.
*A* 5.52 to 6.52

*Q* Please give the result for `COc1cc(-c2cc3nccc(-c4cc(F)cc(C(=O)NCCCN)c4)c3o2)cc(OC)c1OC` too.
*A* 4.30 to 5.52

*Q* Please give the result for `COc1ccc(OCCN)cc1-c1cc2nccc(-c3cccc(C(=O)N[C@@H]4CCCC[C@@H]4N)c3)c2o1` too.
*A* 5.52 to 6.52

----------
Provide the recorded IC50 for the entries that follow.
molecular target: SYK (Homo sapiens)

*Q* IC50 for `Cc1cc(OCCN)ccc1-c1cc2nccc(-c3cccc(C(=O)N[C@@H]4CCCC[C@@H]4N)c3)c2o1` ?
*A* 300 to 3000 nM

*Q* Please give the result for `COc1cc2[nH]cnc2cc1-c1ccnc2cc(-c3cc(OC)c(OC)c(OC)c3)oc12` too.
*A* 300 to 3000 nM

*Q* Please give the result for `COc1cc(-c2cc3nccc(-c4ccc5ncn(CCN)c5c4)c3o2)cc(OC)c1OC` too.
*A* 300 to 3000 nM

*Q* Please give the result for COc1ccc(C(C)O)cc1-c1ccnc2cc(-c3cc(OC)c(OC)c(OC)c3)oc12 (stereo not shown) too.
*A* 100 to 300 nM

*Q* Please give the result for `COc1ccc(C(N)=O)cc1-c1cc2nccc(-c3cc([C@@H](C)N)ccc3OC)c2o1` too.
*A* 100 to 300 nM

*Q* Please give the result for `COc1cc(-c2cc3nccc(-c4cccc(C(=O)NC[C@@H](O)CO)c4)c3o2)cc(OC)c1OC` too.
*A* 3000 to 50000 nM

*Q* Please give the result for `COc1cc(-c2cc3nccc(-c4cccc(C(=O)NC(C)(C)CO)c4)c3o2)cc(OC)c1OC` too.
*A* 300 to 3000 nM

*Q* Please give the result for `COc1cc(-c2cc3nccc(-c4ccc5c(c4)[nH]c(=O)n5CCN)c3o2)cc(OC)c1OC` too.
*A* 300 to 3000 nM

*Q* Please give the result for `COc1ccc(C(N)=O)cc1-c1cc2nccc(-c3ccc4[nH]cnc4c3)c2o1` too.
*A* < 100 nM

*Q* Please give the result for COc1cc(-c2cc3nccc(-c4cccc(C(=O)NCC(O)CO)c4)c3o2)cc(OC)c1OC (stereo not shown) too.
*A* 3000 to 50000 nM

*Q* Please give the result for `COc1cc(-c2cc3nccc(-c4ccc(O)nc4)c3o2)cc(OC)c1OC` too.
*A* 300 to 3000 nM

*Q* Please give the result for `COc1cc(-c2cc3nccc(-c4cccc(C(=O)N[C@@H]5CCCC[C@H]5O)c4)c3o2)cc(OC)c1OC` too.
*A* 3000 to 50000 nM

*Q* Please give the result for `COc1ccc(S(N)(=O)=O)cc1-c1cc2nccc(-c3cc[nH]n3)c2o1` too.
*A* < 100 nM

*Q* Please give the result for `COc1cc(-c2cc3nccc(N=[N+]=[N-])c3o2)cc(OC)c1OC` too.
*A* 3000 to 50000 nM

*Q* Please give the result for `Cc1cc2[nH]ncc2cc1-c1cc2nccc(-c3cccc(C(=O)N[C@@H]4CCCC[C@@H]4N)c3)c2o1` too.
*A* 300 to 3000 nM

*Q* Please give the result for `COc1ccc(C(N)=O)cc1-c1cc2nccc(-c3ccnc(N[C@H]4CCCC[C@H]4N)c3)c2o1` too.
*A* < 100 nM

*Q* Please give the result for `N[C@H]1CCCC[C@H]1NC(=O)c1cccc(-c2ccnc3cc(-c4cccc5c4OCO5)oc23)c1` too.
*A* 300 to 3000 nM

*Q* Please give the result for `COc1cc(-c2cc3nccc(-c4cc(OCCN)ccc4F)c3o2)cc(OC)c1OC` too.
*A* 300 to 3000 nM

*Q* Please give the result for `COc1ccc(C(N)=O)cc1-c1cc2nccc(-c3ccnc(NCCN)c3)c2o1` too.
*A* < 100 nM

*Q* Please give the result for `COc1ccc(C(N)=O)cc1-c1cc2nccc(-c3c(OC)cc(C(=O)NCCN)cc3OC)c2o1` too.
*A* < 100 nM

*Q* Please give the result for `COC[C@@H](CNC(=O)c1cccc(-c2ccnc3cc(-c4cc(OC)c(OC)c(OC)c4)oc23)c1)NS(C)(=O)=O` too.
*A* 300 to 3000 nM

*Q* Please give the result for `COc1cc(O)ccc1-c1cc2nccc(-c3cccc(C(=O)N[C@@H]4CCCC[C@@H]4N)c3)c2o1` too.
*A* 300 to 3000 nM

*Q* Please give the result for COc1ccc(C(=O)NCC(O)CO)cc1-c1cc2nccc(-c3c(OC)cccc3OC)c2o1 (stereo not shown) too.
*A* 300 to 3000 nM

*Q* Please give the result for `COc1cc(-c2cc3nccc(-c4cccc(C(=O)N[C@H]5CCCC[C@H]5O)c4)c3o2)cc(OC)c1OC` too.
*A* 300 to 3000 nM

*Q* Please give the result for `COc1ccc(C(N)=O)cc1-c1cc2nccc(-c3cc4[nH]cnc4cc3OC)c2o1` too.
*A* 300 to 3000 nM

*Q* Please give the result for `COc1ccc(C(N)=O)cc1-c1cc2nccc(-c3ccc(C(=O)NCCN)cc3OC)c2o1` too.
*A* 100 to 300 nM

*Q* Please give the result for COCC(O)CNC(=O)c1cccc(-c2ccnc3cc(-c4cc(OC)c(OC)c(OC)c4)oc23)c1 (stereo not shown) too.
*A* 3000 to 50000 nM

*Q* Please give the result for `COc1ccc(C(=O)NCC(C)(C)N)cc1-c1cc2nccc(-c3c(OC)cccc3OC)c2o1` too.
*A* 300 to 3000 nM

*Q* Please give the result for `COc1ccc(C(N)=O)cc1-c1cc2nccc(-c3cnc[nH]3)c2o1` too.
*A* 100 to 300 nM

*Q* Please give the result for `COc1cc(-c2cc3nccc(-c4cc5cn[nH]c5cc4C)c3o2)cc(OC)c1OC` too.
*A* 300 to 3000 nM

*Q* Please give the result for COc1cc(-c2cc3nccc(NC(=O)NC4CCCCC4N)c3o2)cc(OC)c1OC (stereo not shown) too.
*A* 3000 to 50000 nM

----------
target: SYK (Homo sapiens, UniProt P43405)
Provide the recorded IC50 for the entries that follow.

*Q* IC50 for `NC(=O)c1ccc(-c2cc3nccc(-c4cccc(C(=O)N[C@@H]5CCCC[C@@H]5N)c4)c3o2)c(F)c1` ?
*A* 3 to 50 µM

*Q* Please give the result for `COc1ccc(CNCCN)cc1-c1ccnc2cc(-c3cc(OC)c(OC)c(OC)c3)oc12` too.
*A* 0.3 to 3 µM

*Q* Please give the result for `COc1ccc(-c2ncon2)cc1-c1cc2nccc(-c3cc[nH]n3)c2o1` too.
*A* < 0.1 µM

*Q* Please give the result for `COc1cccc(OC)c1-c1ccnc2cc(-c3cc(C(N)=O)ccc3N)oc12` too.
*A* 0.1 to 0.3 µM

*Q* Please give the result for `COc1cc(-c2cc3nccc(N4CCNCC4)c3o2)cc(OC)c1OC` too.
*A* 3 to 50 µM

*Q* Please give the result for `COC[C@@H](N)CNC(=O)c1cccc(-c2ccnc3cc(-c4cc(OC)c(OC)c(OC)c4)oc23)c1` too.
*A* 3 to 50 µM
